What IC50 was measured for each of the following?
Biological target: DNA repair nuclease/redox regulator APEX1 (Homo sapiens, UniProt P27695)
Sequence (P27695 whole entry): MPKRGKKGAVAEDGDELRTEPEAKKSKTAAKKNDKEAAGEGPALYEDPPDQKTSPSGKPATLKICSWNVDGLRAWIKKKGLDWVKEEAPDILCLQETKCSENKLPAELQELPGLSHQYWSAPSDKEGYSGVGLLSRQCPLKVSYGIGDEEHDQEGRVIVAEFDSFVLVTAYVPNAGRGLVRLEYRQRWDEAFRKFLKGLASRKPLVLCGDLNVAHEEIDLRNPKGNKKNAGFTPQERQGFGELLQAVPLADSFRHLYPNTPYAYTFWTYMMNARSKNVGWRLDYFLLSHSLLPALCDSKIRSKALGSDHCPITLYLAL
Assay: Inhibition of full length human APE1 assessed as reduction in endonuclease activity by measuring DNA cleavage of abasic sites using 6-FAM labelled two annealed oligonucleotides as AP site mimic substrate by fluorescence-based assay

C[C@H]1/C=C/CC(=O)N[C@H](c2ccc(Cl)cc2)CC(=O)N[C@@H](Cc2c[nH]c3ccccc23)C(=O)N[C@H]1c1ccccc1
> 100 µM
C[C@H]1/C=C/CC(=O)OCCCC(=O)N[C@@H](Cc2c[nH]c3ccccc23)C(=O)N[C@H]1c1ccccc1
> 100 µM

Okay, now this compound:
Look up and state reported IC50 for Cc1ccc(S(=O)(=O)n2cccc2[C@@H]2NC(=O)[C@H](Cc3c[nH]c4ccccc34)NC(=O)CCCCNC(=O)C/C=C/[C@@H]2C)cc1 > 50 µM
